Molecular target: Cellular tumor antigen p53 (Homo sapiens)
Experiment: TOX21_p53_BLA_p4_ratio: Tox21 HCT-116 p53 Agonism Beta-lactamase Assay, Ratio, Phase 4 (AID 2283601)
Protocol: TOX21_p53_BLA_p4 is a cell-based, single-readout assay that uses HCT116, a human intestinal cell line, […] in a 1536-well plate.TOX21_p53_BLA_p4_ratio is an assay readout measuring reporter gene via receptor activity and designed using inducible reporter (beta lactamase induction) detected with GAL4 b-lactamase reporter gene. […] This assay endpoint, TOX21_p53_BLA_p4_ratio, was analyzed in the positive analysis fitting direction relative to DMSO as the negative control and baseline of activity. […]
Records with an inconclusive call do not appear. Activity calls are given as the source filed them. The calls were made as follows: active = hit-call score of the fitted dose curve at least 0.9, where 1 is the maximum; inconclusive = response in the unintended direction; inactive = score below 0.9.
The reply should name one outcome from 1 (active), -1 (inactive)

Recorded results for 3 molecules are shown here.
Molecule	Class Assignment
O=C(O)C(Cl)(Cl)Br	-1
CCCCNCC(O)c1ccc(O)cc1 (stereo not given)	-1
CC(C)(O)C#N	-1

Task: Which outcome was assigned to CCc1cc(OC)c(C[C@@H](C)N)cc1OC in this test?
Result: -1

Task: Tell me the recorded outcome of this test for Cc1ccccc1CCl .
Result: -1
